# Target under test: Gal(a1-3)Gal(b1-3)GlcNAc(b1-2)Man(a1-3)[Gal(a1-3)Gal(b1-3)GlcNAc(b1-2)Man(a1-6)]Man(b1-4)GlcNAc(b1-4)GlcNAc
# Method description: glycan array binding signal (z-score within array); higher = stronger binding
# Measurement conditions: glycan notation: IUPAC condensed, linker removed
The sample as a whole holds a higher share of the strongest signals than the screen did.
Value type: glycan array binding signal (z-score)
Give the value as a plain number.

QUERY: Input GNAT (Pseudomonas aeruginosa), Q9HV14 (protein) MQLSHRPAETGDLETVAGFPQDRDELFYCYPKAIWPFSVAQLAAAIAERRGSTVAVHDGQVLGFANFYQWQHGDFCALGNMMVAPAARGLGVARYLIGVMENLAREQYKARLMKISCFNANAAGLLLYTQLGYQPRAIAERHDPDGRRVALIQMDKPLEP , output reported glycan array binding signal (z-score).
RESULT: 2.69
